# experimentalTarget: human PTH1 receptor (Homo sapiens, UniProt Q03431)
# Sequence (Q03431 27-593): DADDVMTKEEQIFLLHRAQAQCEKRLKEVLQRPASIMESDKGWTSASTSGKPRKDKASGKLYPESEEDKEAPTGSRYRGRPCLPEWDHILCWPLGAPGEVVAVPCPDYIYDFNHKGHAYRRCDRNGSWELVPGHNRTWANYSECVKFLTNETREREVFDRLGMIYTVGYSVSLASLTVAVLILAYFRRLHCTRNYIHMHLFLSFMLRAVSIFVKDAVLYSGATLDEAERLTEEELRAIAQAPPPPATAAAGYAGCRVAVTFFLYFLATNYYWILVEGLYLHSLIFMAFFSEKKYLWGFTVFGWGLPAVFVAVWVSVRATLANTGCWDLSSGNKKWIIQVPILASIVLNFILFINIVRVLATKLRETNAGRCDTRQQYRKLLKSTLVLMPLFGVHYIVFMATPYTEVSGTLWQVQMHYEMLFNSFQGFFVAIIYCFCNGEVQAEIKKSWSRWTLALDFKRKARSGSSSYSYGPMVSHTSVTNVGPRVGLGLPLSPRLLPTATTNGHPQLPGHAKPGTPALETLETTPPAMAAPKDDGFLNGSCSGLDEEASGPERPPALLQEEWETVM
# assayComment: In vitro cAMP signal activity in HKRK-B7 cells (LLC-PK1 cells overexpressing the human PTH1 receptor)
# Format: cell-based
# protocolConditions: HKRK-B7 cells; compound at 1×10^−3 M; cAMP produced as percentage of that produced by hPTH(1-34) at 100 nM
property: cAMP production activity (%)

> print(dat)
                                   molecule                      property  experimentalresult
1  Cc1cc(NS(=O)(=O)NCCCO)ccc1CCS(=O)(=O)N1CCC2(CC1)N=C(c1cccc(OC(F)(F)F)c1)NC2=O  cAMP production activity (%)                 65%
2  Cc1cc(N(C)C(N)=O)c(Cl)c(C)c1CCS(=O)(=O)N1CCC2(CC1)N=C(C1CCC(CC(F)(F)F)CC1)NC2=O (stereo not shown)  cAMP production activity (%)                120%
3  O=C1NC(c2ccc(Cl)cc2Cl)=NC12CCN(S(=O)(=O)c1ccccc1C(F)(F)F)CC2  cAMP production activity (%)                 22%
4  Cc1cc(C(=O)N(C)C)ccc1CCS(=O)(=O)N1CCC2(CC1)N=C(C1CCC(C)CC1)NC2=O (stereo not shown)  cAMP production activity (%)                 73%

Where do these numbers come from? They come from patent US9169254B2.
